Tested on: hTAS1R2 and tas1r3-hN-rTM
ASSAY EXPLANATION: Calcium mobilization (FLIPR), chimera with human N-terminus and rat transmembrane region
Type: cell-based
CONDITION NOTES: asp 15 mM; cyc 30 mM; neo 0.1 mM; sac 10 mM; suc 100 mM; stev 1 mM
Where a SMILES comes first, the peptide text is derived from it.
PROPERTY: activation of receptor (calcium response)

Before answering, review these 5 worked examples.
Input OC[C@H]1O[C@@](CO)(O[C@H]2O[C@H](CO)[C@@H](O)[C@H](O)[C@H]2O)[C@@H](O)[C@@H]1O . Output activation of receptor (calcium response): responded

The recorded activation of receptor (calcium response) for entry O=S(=O)(O)NC1CCCCC1 [cyclamate] equals not

Just so you know, measured activation of receptor (calcium response) for C=C1C[C@@]23CC[C@H]4[C@@](C)(CCC[C@@]4(C)C(=O)O[C@@H]4O[C@H](CO)[C@@H](O)[C@H](O)[C@H]4O)[C@@H]2CC[C@]1(O[C@@H]1O[C@H](CO)[C@@H](O)[C@H](O)[C@H]1O[C@@H]1O[C@H](CO)[C@@H](O)[C@H](O)[C@H]1O)C3 [stevioside] came out at responded

Please fill in: activation of receptor (calcium response) reported for O=C1NS(=O)(=O)c2ccccc21 = responded

Measured activation of receptor (calcium response) of COc1ccc(CCC(=O)c2c(O)cc(O[C@@H]3O[C@H](CO)[C@@H](O)[C@H](O)[C@H]3O[C@@H]3O[C@@H](C)[C@H](O)[C@@H](O)[C@H]3O)cc2O)cc1O [neohesperidine dihydrochalcone] : not

New cases:
# molecule COC(=O)[C@H](Cc1ccccc1)NC(=O)[C@@H](N)CC(=O)O [aspartame] (HELM PEPTIDE1{D.F.[CO[*:1]]}$$$$V2.0) ; its activation of receptor (calcium response) = responded
